Reported concentration at 8 hr values for a set of compounds
- assay method text: In vivo pharmacokinetics in CD-1 mice
- Design: species or system mouse
- study conditions: male, CD-1, mouse, plasma; oral 20 mg/kg, 20% DMA-40% PEG300-40% H2O; 8 hr post-dose; read-out: Clast
- Method: PK studies on 3 and 25 were carried out in CD-1 mice. Three males were dosed via oral gavage needle for oral administration at 20 mg/kg (10 mL/kg) or via intravenous administration at 5 mg/kg (10 mL/kg). Blood samples were taken at time intervals between 5 min and 24 hr from each animal. […] Plasma concentrations were measured as described above to determine a concentration vs. time profile. The area under the plasma concentration vs time curve (AUC) was calculated using the linear trapezoidal method. […]
experimental endpoint: concentration at 8 hr (ng/mL)

compound="CCC#CCNC1=CC(=O)c2ccccc2C1=O [Compound 3]" experimental_endpoint="concentration at 8 hr" measured=33.1
compound="CC(C)CCOC1=CC(=O)c2ccccc2C1=O [Compound 25, 2-(Isopentyloxy)naphthalene-1,4-dione]" experimental_endpoint="concentration at 8 hr" measured=531

###

AUC(0-t) values by entry
- assay method text: In vivo pharmacokinetics in CD-1 mice
- Design: species or system mouse
- study conditions: male, CD-1, mouse, plasma, ip, 20 mg/kg, intraperitoneal 20 mg/kg, 5% DMSO: 95% neobee
- Protocol: PK studies on 3 and 25 were carried out in CD-1 mice. Three males were dosed via oral gavage needle for oral administration at 20 mg/kg (10 mL/kg) or via intravenous administration at 5 mg/kg (10 mL/kg). Blood samples were taken at time intervals between 5 min and 24 hr from each animal. […] Plasma concentrations were measured as described above to determine a concentration vs. time profile. The area under the plasma concentration vs time curve (AUC) was calculated using the linear trapezoidal method. […]
experimental endpoint: AUC(0-t) (ng·h/mL)

line_notation=CCC#CCNC1=CC(=O)c2ccccc2C1=O measurement_units=ng·h/mL measured=463
line_notation=CC(C)CCNC1=CC(=O)c2ccccc2C1=O measurement_units=ng·h/mL measured=1720

###

Property: concentration at 24 hr; scope: individual molecules
- assay method text: In vivo pharmacokinetics in CD-1 mice
- Design: species or system mouse
- study conditions: male, CD-1, mouse, plasma; intraperitoneal 20 mg/kg, 5% DMSO: 95% neobee; read-out: Clast
experimental endpoint: concentration at 24 hr (ng/mL)

line_notation=CC(C)CCNC1=CC(=O)c2ccccc2C1=O measured=1.95
line_notation=CCC#CCNC1=CC(=O)c2ccccc2C1=O measured=1.47

###

- assay method text: In vivo pharmacokinetics in CD-1 mice
- Design: species or system mouse
- study conditions: intravenous, 5 mg/kg
experimental endpoint: AUCinf/D

line_notation=CC(C)CCOC1=CC(=O)c2ccccc2C1=O experimental_endpoint=AUCinf/D measured="242 h·(ng/mL)/(mg/kg)"
line_notation=CCC#CCNC1=CC(=O)c2ccccc2C1=O experimental_endpoint=AUCinf/D measured="89.6 h·(ng/mL)/(mg/kg)"

###

Reported values of solubility for individual entries
- assay method text: Aqueous solubility at pH 7.4
- Type: physicochemical
- study conditions: pH 7.4, aqueous buffer; 50 mM phosphate buffer
experimental endpoint: solubility (µg/mL)

molecule="CC(C)CCNC1=CC(=O)c2ccccc2C1=O [Compound 17, 2-(Isopentylamino)naphthalene-1,4-dione]" measured=9.64
molecule="CCC#CCNC1=CC(=O)c2ccccc2C1=O [Compound 3]" measured=4.79

These measurements were taken from patent US11771685B2.
